# Tested on: MS2 coat protein
# Procedure details: apparent Kd, MS2 coat protein; higher = weaker binding; RNA-MaP array; theophylline 2 mM where present
# Particulars: designed as: OFF switch for theophylline; no ligand
Label rule met when apparent Kd is at or above 30 nM; otherwise label rule not met.

Polymer sequence	Measured target	Class name
AGAAUAACACAUGAGGAUCACCCAUGUGAUACCAGCUAGGAAACUAGCCCUUGGCAGCACAUAAUCCUCAUGAAUGUGCUGAAUA	MS2 coat protein	rule met

Consider now this further sequence.
Query :: Does the reported apparent Kd for `CAAGAAGUAACUGAUACCAGUGUACUGACAUGAGGAUCACCCAUGUUGGGUUUUGUUGUACACCCUUGGCAGCAGAAUCUUCUUG` fall at or above the 30 nM mark?
Result :: rule met
